- STUDY SYSTEM: MAP kinase p38 (Homo sapiens, UniProt O15264+Q15759+Q16539+P53778)
- PROTOCOL TEXT: Inhibition of p38 MAP kinase related interleukin (IL1-beta (cytokine) release from human peripheral blood mononuclear cells
MEASUREMENT KIND: IC50 (µM)

{"MOLECULE": "C[S+]([O-])c1ccccc1CSc1nc(-c2ccc(F)cc2)c(-c2ccncc2)[nH]1 (stereo not given)", "MEASUREMENT KIND": "IC50", "UNIT ANNOTATION": "µM", "ASSAY VALUE": 0.9}
{"MOLECULE": "C[S+]([O-])c1cccc(CSc2nc(-c3ccc(F)cc3)c(-c3ccncc3)[nH]2)c1 (stereo not given)", "MEASUREMENT KIND": "IC50", "UNIT ANNOTATION": "µM", "ASSAY VALUE": 1}
{"MOLECULE": "C[S+]([O-])c1ccc(CSc2ncc(-c3ccc(F)cc3)c(-c3ccncc3)n2)cc1 (stereo not given)", "MEASUREMENT KIND": "IC50", "UNIT ANNOTATION": "µM", "ASSAY VALUE": 5.6}
{"MOLECULE": "CSc1ccc(CSc2ncc(-c3ccc(F)cc3)c(-c3ccncc3)n2)cc1", "MEASUREMENT KIND": "IC50", "UNIT ANNOTATION": "µM", "ASSAY VALUE": 7.4}
{"MOLECULE": "C[S+]([O-])c1cccc(CSc2ncc(-c3ccc(F)cc3)c(-c3ccncc3)n2)c1 (stereo not given)", "MEASUREMENT KIND": "IC50", "UNIT ANNOTATION": "µM", "ASSAY VALUE": 5.4}

a: CS(=O)(=O)c1ccc(CSc2ncc(-c3ccc(F)cc3)c(-c3ccncc3)n2)cc1
b: C[S+]([O-])c1ccc(CSc2ncc(-c3ccc(F)cc3)c(-c3cccnc3)n2)cc1 (stereo not given)
c: C[S+]([O-])c1ccc(CSc2nc(-c3ccc(F)cc3)c(-c3ccncc3)[nH]2)cc1 (stereo not given)
d: C[S+]([O-])c1ccc(CSc2ncc(-c3ccncc3)c(-c3ccc(F)cc3)n2)cc1 (stereo not given)
e: C[S+]([O-])c1ccc(CSc2nc(O)c(-c3ccc(F)cc3)c(-c3ccncc3)n2)cc1 (stereo not given)
Ranking field: IC50; order: falling. # respond with the labels, arranged in the requested order
b, e, d, a, c
(b: 75.5 µM, e: 25.5 µM, d: 17.8 µM, a: 7.7 µM, c: 0.88 µM)

###

Below, each of the compounds is paired with its reported IC50 value.
- STUDY SYSTEM: MAP kinase p38 (Homo sapiens, UniProt O15264+Q15759+Q16539+P53778)
- PROTOCOL TEXT: Inhibition of p38 MAP kinase related TNF-alpha release from human whole blood
- Type: functional, tissue-based

Please review the entries below; each comes with its answer.
{"COMPOUND": "CS(=O)(=O)c1ccc(CSc2ncc(-c3ccc(F)cc3)c(-c3ccncc3)n2)cc1", "IC50": "> 100 µM"}
{"COMPOUND": "C[S+]([O-])c1ccc(CSc2ncc(-c3ccncc3)c(-c3ccc(F)cc3)n2)cc1 (centres undefined)", "IC50": "> 100 µM"}
{"COMPOUND": "C[S+]([O-])c1ccc(CSc2ncc(-c3ccc(F)cc3)c(-c3cccnc3)n2)cc1 (centres undefined)", "IC50": "> 100 µM"}

Attention now turns to another entry.
Would you mind telling me what IC50 value was observed for C[S+]([O-])c1ccc(CSc2nc(O)c(-c3ccc(F)cc3)c(-c3ccncc3)n2)cc1 (centres undefined) ?
> 100 µM

###

- STUDY SYSTEM: MAP kinase p38 (Homo sapiens, UniProt O15264+Q15759+Q16539+P53778)
- PROTOCOL TEXT: Inhibition of p38 MAP kinase related interleukin (IL1-beta (cytokine) release from human whole blood
- Format: functional, tissue-based
MEASUREMENT KIND: IC50 (µM)

{"MOLECULE": "C[S+]([O-])c1cccc(CSc2nc(-c3ccc(F)cc3)c(-c3ccncc3)[nH]2)c1 (centres undefined)", "IC50 [µM]": 4.1}

P: C[S+]([O-])c1ccc(CSc2nc(-c3ccc(F)cc3)c(-c3ccncc3)[nH]2)cc1 (centres undefined)
Q: C[S+]([O-])c1ccccc1CSc1nc(-c2ccc(F)cc2)c(-c2ccncc2)[nH]1 (centres undefined)
R: C[S+]([O-])c1ccc(CSc2ncc(-c3ccc(F)cc3)c(-c3ccncc3)n2)cc1 (centres undefined)
Order the items by recorded IC50; the first position goes to the largest value. Response format: the labels, sorted as the prompt asks.
R, Q, P

###

- STUDY SYSTEM: MAP kinase p38 (Homo sapiens, UniProt O15264+Q15759+Q16539+P53778)
- PROTOCOL TEXT: Inhibition of p38 MAP kinase related TNF-alpha release from human whole blood
- Assay type: functional, tissue-based
MEASUREMENT KIND: IC50 (µM)

{"MOLECULE": "C[S+]([O-])c1cccc(CSc2nc(-c3ccc(F)cc3)c(-c3ccncc3)[nH]2)c1 (stereo not given)", "IC50 [µM]": 33.5}

P: C[S+]([O-])c1ccccc1CSc1nc(-c2ccc(F)cc2)c(-c2ccncc2)[nH]1 (stereo not given)
Q: C[S+]([O-])c1ccc(CSc2nc(-c3ccc(F)cc3)c(-c3ccncc3)[nH]2)cc1 (stereo not given)
R: C[S+]([O-])c1ccc(CSc2ncc(-c3ccc(F)cc3)c(-c3ccncc3)n2)cc1 (stereo not given)
Arrange the 3 molecules by rising IC50, starting with the smallest. Answer format: the labels, ordered as requested.
Q, P, R
(Q: 20.3 µM, P: 47.5 µM, R: 95.5 µM)

###

- STUDY SYSTEM: MAP kinase p38 (Homo sapiens, UniProt O15264+Q15759+Q16539+P53778)
- PROTOCOL TEXT: Inhibition of p38 MAP kinase related TNF-alpha release from peripheral blood mononuclear cells (PBMC)
- Type: functional
MEASUREMENT KIND: IC50 (µM)

Known IC50 results, listed for orientation:
{"MOLECULE": "C[S+]([O-])c1cccc(CSc2nc(-c3ccc(F)cc3)c(-c3ccncc3)[nH]2)c1 (stereo not given)", "ASSAY VALUE": 23.5}
{"MOLECULE": "C[S+]([O-])c1ccc(CSc2nc(O)c(-c3ccc(F)cc3)c(-c3ccncc3)n2)cc1 (stereo not given)", "ASSAY VALUE": 27}
{"MOLECULE": "C[S+]([O-])c1ccc(CSc2ncc(-c3ccc(F)cc3)c(-c3ccncc3)n2)cc1 (stereo not given)", "ASSAY VALUE": 14.1}
{"MOLECULE": "C[S+]([O-])c1ccccc1CSc1nc(-c2ccc(F)cc2)c(-c2ccncc2)[nH]1 (stereo not given)", "ASSAY VALUE": 15}
{"MOLECULE": "C[S+]([O-])c1ccc(CSc2ncc(-c3ccc(F)cc3)c(-c3cccnc3)n2)cc1 (stereo not given)", "ASSAY VALUE": 54}
{"MOLECULE": "C[S+]([O-])c1cccc(CSc2ncc(-c3ccc(F)cc3)c(-c3ccncc3)n2)c1 (stereo not given)", "ASSAY VALUE": 6.5}
{"MOLECULE": "C[S+]([O-])c1ccc(CSc2ncc(-c3ccncc3)c(-c3ccc(F)cc3)n2)cc1 (stereo not given)", "ASSAY VALUE": 29.9}
{"MOLECULE": "CS(=O)(=O)c1ccc(CSc2ncc(-c3ccc(F)cc3)c(-c3ccncc3)n2)cc1", "ASSAY VALUE": 17.8}

I: CSc1ccc(CSc2ncc(-c3ccc(F)cc3)c(-c3ccncc3)n2)cc1
II: C[S+]([O-])c1ccc(CSc2nc(-c3ccc(F)cc3)c(-c3ccncc3)[nH]2)cc1 (stereo not given)
I'd appreciate it if you could identify which of I and II has the greater IC50. # respond with the chosen item's label
I
(I: 60 µM, II: 3.65 µM)

###

Readings of IC50 for the listed compounds
- STUDY SYSTEM: MAP kinase p38 (Homo sapiens, UniProt O15264+Q15759+Q16539+P53778)
- PROTOCOL TEXT: Inhibition of p38 MAP kinase related interleukin (IL1-beta (cytokine) release from human whole blood
- Assay type: functional, tissue-based

Consider the worked cases shown below.
{"COMPOUND": "C[S+]([O-])c1ccc(CSc2nc(O)c(-c3ccc(F)cc3)c(-c3ccncc3)n2)cc1 (stereo not given)", "IC50": "> 100 µM"}
{"COMPOUND": "CSc1ccc(CSc2ncc(-c3ccc(F)cc3)c(-c3ccncc3)n2)cc1", "IC50": "> 100 µM"}
{"COMPOUND": "C[S+]([O-])c1ccc(CSc2ncc(-c3ccncc3)c(-c3ccc(F)cc3)n2)cc1 (stereo not given)", "IC50": "> 100 µM"}
{"COMPOUND": "C[S+]([O-])c1ccc(CSc2ncc(-c3ccc(F)cc3)c(-c3cccnc3)n2)cc1 (stereo not given)", "IC50": "> 100 µM"}

Which IC50 reading was recorded for the compound CS(=O)(=O)c1ccc(CSc2ncc(-c3ccc(F)cc3)c(-c3ccncc3)n2)cc1 ?
> 100 µM

Each recorded value in this set is attributed to ChEMBL document CHEMBL1135478.
